Molecular target: TGR5 (Homo sapiens, UniProt Q8TDU6)
Sequence (Q8TDU6 1-330): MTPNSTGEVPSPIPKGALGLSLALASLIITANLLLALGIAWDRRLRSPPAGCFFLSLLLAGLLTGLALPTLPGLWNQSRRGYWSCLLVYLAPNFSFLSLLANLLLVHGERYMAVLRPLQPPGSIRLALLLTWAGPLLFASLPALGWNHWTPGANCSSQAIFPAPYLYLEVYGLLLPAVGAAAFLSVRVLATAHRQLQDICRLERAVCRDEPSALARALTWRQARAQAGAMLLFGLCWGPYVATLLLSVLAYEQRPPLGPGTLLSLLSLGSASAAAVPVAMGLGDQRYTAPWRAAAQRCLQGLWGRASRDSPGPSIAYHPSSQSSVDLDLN
Test: TGR5 activity: cAMP in hTGR5 CHO-k1 cells
Format: cell-based
Parameters: expressed in transfected cells; host or cells: CHO-k1
Settings: 0.5 h; hTGR5 CHO cells; Ref. LCA 100% at 10 μM; read-out: hTGR5 CHO Efficacy
Examples of compounds with documented Emax follow.
Note to self: number, then unit, no commentary.

The cases that follow already have their Emax on record.
CC[C@@H]1C2C[C@H](O)CC[C@]2(C)C2CC[C@@]3(C)C(CC[C@@H]3[C@H](C)Cc3nc(=O)o[nH]3)C2[C@@H]1O (stereo partly shown) | 107%
CC[C@H]1[C@@H](O)[C@@H]2[C@H](C[C@H](O)[C@]3(C)[C@@H]([C@H](C)C[C@@H](O)C(=O)O)CC[C@@H]23)[C@@]2(C)CC[C@@H](O)C[C@@H]12 | 47.5%
CC[C@H]1[C@@H](O)[C@@H]2[C@H](C[C@H](O)[C@]3(C)[C@@H]([C@H](C)C[C@H](F)C(=O)O)CC[C@@H]23)[C@@]2(C)CC[C@@H](O)C[C@@H]12 | 103%

Could you share which Emax value was measured for CC[C@H]1[C@@H](O)C2C3CC[C@H]([C@H](C)CCc4noc(=O)[nH]4)[C@@]3(C)[C@@H](O)CC2[C@@]2(C)CC[C@@H](O)C[C@@H]12 (stereo partly shown) ?
96%

Would you mind telling me what Emax value was observed for CC[C@@H]1C2C[C@H](O)CC[C@]2(C)C2CC[C@@]3(C)C(CC[C@@H]3[C@H](C)Cc3nn[nH]n3)C2[C@@H]1O (stereo partly shown) ?
102%

# input compound: CC[C@H]1[C@@H](O)C2C3CC[C@H]([C@H](C)CC(F)(F)C(=O)O)[C@@]3(C)CCC2[C@@]2(C)CC[C@@H](O)C[C@@H]12 (stereo partly shown) ; wanted: its Emax
103%

----------
Listed molecules paired with reported LogPA−
Assay: Lipophilicity, 1-octanol/water partition coefficient (shake-flask)
Format: physicochemical
Details: pH 8.00, ionized BA
Method: The experiments were carried out on 1 mM initial bile salt solution buffered at pH 8.00 with 0.1 M potassium phosphate buffer to ensure complete ionization of the BA. BA concentration in the water phase before and after partition in 1-octanol was measured by HPLC-ESMS/MS as reported below.
Returns: the value as a bare number; no unit string appended.

Example cases with answers are listed next.
CC[C@H]1[C@@H](O)C2C3CC[C@H]([C@H](C)C[C@@H](CO)C(=O)O)[C@@]3(C)[C@@H](O)CC2[C@@]2(C)CC[C@@H](O)C[C@@H]12 (stereo partly shown) | −0.2
C[C@H](CCC(=O)NCC(=O)O)[C@H]1CC[C@H]2[C@@H]3[C@H](O)C[C@@H]4C[C@H](O)CC[C@]4(C)[C@H]3CC[C@]12C [GCDCA, reference compound] | 0.4

Which LogPA− reading was recorded for the molecule C[C@H](CCC(=O)O)[C@H]1CC[C@H]2[C@@H]3[C@@H](O)C[C@@H]4C[C@H](O)CC[C@]4(C)[C@H]3CC[C@]12C [UDCA, ursodeoxycholic acid, reference compound] ?
2.2

Which LogPA− is reported for this molecule? CC[C@H]1[C@@H](O)C2C3CC[C@H]([C@H](C)CC(F)(F)C(=O)O)[C@@]3(C)[C@@H](O)CC2[C@@]2(C)CC[C@@H](O)C[C@@H]12 (stereo partly shown)
1.0

Suppose we examine the molecule CC[C@H]1[C@@H](O)C2C3CC[C@H]([C@H](C)CCC(=O)O)[C@@]3(C)CCC2[C@@]2(C)CC[C@@H](O)C[C@@H]12 (stereo partly shown) [Ref. Cmpd. B, reference compound] ; what LogPA− value has been reported?
2.5

Can you share its LogPA−? I mean this molecule: "CC[C@H]1[C@@H](O)[C@@H]2[C@H](C[C@H](O)[C@]3(C)[C@@H]([C@H](C)C[C@H](F)C(=O)O)CC[C@@H]23)[C@@]2(C)CC[C@@H](O)C[C@@H]12"
0.01

----------
Item-by-item account of Emax
Molecular target: human glutathione transferase-tagged FXR-LBD (Homo sapiens)
Construct: human glutathione transferase-tagged FXR-LBD (Life Technologies, USA); purchased Life Technologies, USA
Sequence (Q96RI1 262-486 limits assumed): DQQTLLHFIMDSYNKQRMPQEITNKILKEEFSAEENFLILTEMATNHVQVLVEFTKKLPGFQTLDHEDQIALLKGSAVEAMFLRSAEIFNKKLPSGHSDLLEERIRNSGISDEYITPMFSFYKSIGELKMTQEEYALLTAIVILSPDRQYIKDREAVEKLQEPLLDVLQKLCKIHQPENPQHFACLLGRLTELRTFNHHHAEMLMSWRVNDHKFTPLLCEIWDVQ
Test: FXR AlphaScreen coactivator recruitment assay (human);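 as to hFXR Efficacy: CDCA at 50 µM taken as 100%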
Type: biochemical
Design: dose or concentration left out as unconfirmed
Settings: read-out: hFXR Efficacy
Kindly answer with a numeric value in %, unit omitted.

CC[C@H]1[C@@H](O)C2C3CC[C@H]([C@H](C)C[C@@H](CO)C(=O)O)[C@@]3(C)[C@@H](O)CC2[C@@]2(C)CC[C@@H](O)C[C@@H]12 (stereo partly shown) | 20
CC[C@H]1[C@@H](O)C2C3CC[C@H]([C@H](C)CCc4noc(=O)[nH]4)[C@@]3(C)[C@@H](O)CC2[C@@]2(C)CC[C@@H](O)C[C@@H]12 (stereo partly shown) | 140
CC[C@H]1[C@@H](O)C2C3CC[C@H]([C@H](C)CC(=O)NO)[C@@]3(C)CCC2[C@@]2(C)CC[C@@H](O)C[C@@H]12 (stereo partly shown) | 122

Kindly review the next compound as well.
What value of Emax on human glutathione transferase-tagged FXR-LBD (Homo sapiens) does CC[C@H]1[C@@H](O)C2C3CC[C@H]([C@H](C)CC(=O)NCCO)[C@@]3(C)CCC2[C@@]2(C)CC[C@@H](O)C[C@@H]12 (stereo partly shown) have?
137

----------
Target: human glutathione transferase-tagged FXR-LBD (Homo sapiens, UniProt Q96RI1)
Construct: human glutathione transferase-tagged FXR-LBD (Life Technologies, USA)
Test: FXR AlphaScreen coactivator recruitment assay (human)
Details: human FXR-LBD, AlphaScreen; read-out: hFXR EC50
Protocol: Activation of the FXR receptor was determined using a recruitment coactivator assay, namely AlphaScreen technology. The assays were performed using human glutathione transferase-tagged FXR-LBD (Life Technologies, USA) and mouse glutathione transferase-tagged FXR-LBD (generated in-house). Briefly, assays were conducted in white, low-volume, 384-well OptiPlate using a final volume of 25 μL containing 10 nM glutathione transferase-tagged FXR-LBD protein and 30 nM biotinylated Src-1 peptide. […]
reportedMetric: EC50 (µM)
Report the value in µM with no unit label.

Sample records with EC50:
CC[C@H]1[C@@H](O)C2C3CC[C@H]([C@H](C)CCc4nn[nH]n4)[C@@]3(C)[C@@H](O)CC2[C@@]2(C)CC[C@@H](O)C[C@@H]12 (stereo partly drawn) [Compound 12] | 1.7
CC[C@H]1[C@@H](O)C2C3CC[C@H]([C@H](C)CC(=O)NCCOS(=O)(=O)[O-])[C@@]3(C)CCC2[C@@]2(C)CC[C@@H](O)C[C@@H]12.[Na+] (stereo partly drawn) [Compound 21] | 1.5

Moving on to the next molecule.
# EC50 lookup, item CC[C@H]1[C@@H](O)C2C3CC[C@H]([C@H](C)CCc4noc(=O)[nH]4)[C@@]3(C)CCC2[C@@]2(C)CC[C@@H](O)C[C@@H]12 (stereo partly drawn) [Compound 16]
0.15

----------
Assay: Critical micellar concentration (surface tension / dye solubilization)
Type: physicochemical
Settings: surface tension at CMC
Description: In the first method, the surface tension was performed by maximum bubble-pressure method using a Sensadyne 6000 tensiometer (Chem-Dyne Research Corp., Milwaukee, Wis.). The surface tension of aqueous solutions at various concentrations (range 0.1-100 mM) of the BA sodium salts in 0.1 M NaCl was measured at 25° C. […]
# STCMC per entry
Note: unit Dyne/cm is implicit; provide only the numeric part.

CC[C@H]1[C@@H](O)C2C3CC[C@H]([C@H](C)C[C@H](C)C(=O)O)[C@@]3(C)[C@@H](O)CC2[C@@]2(C)CC[C@@H](O)C[C@@H]12 (some centres unmarked) [Ref. Cmpd. A, reference compound] | 50.1
CC[C@H]1[C@@H](O)C2C3CC[C@H]([C@H](C)CCC(=O)O)[C@@]3(C)CCC2[C@@]2(C)CC[C@@H](O)C[C@@H]12 (some centres unmarked) [Ref. Cmpd. B, reference compound] | 48.8
C[C@H](CCC(=O)O)[C@H]1CC[C@H]2[C@@H]3[C@H](O)C[C@@H]4C[C@H](O)CC[C@]4(C)[C@H]3CC[C@]12C [CDCA, chenodeoxycholic acid, reference compound] | 45.5
C[C@H](CCC(=O)NCC(=O)O)[C@H]1CC[C@H]2[C@@H]3[C@H](O)C[C@@H]4C[C@H](O)CC[C@]4(C)[C@H]3CC[C@]12C [GCDCA, reference compound] | 45.2
C[C@H](CCC(=O)NCC(=O)O)[C@H]1CC[C@H]2[C@@H]3[C@H](O)C[C@@H]4C[C@H](O)CC[C@]4(C)[C@H]3C[C@H](O)[C@]12C [GCA, reference compound] | 48.8

// returns reported STCMC for input C[C@H](CCC(=O)NCCS(=O)(=O)O)[C@H]1CC[C@H]2[C@@H]3[C@H](O)C[C@@H]4C[C@H](O)CC[C@]4(C)[C@H]3C[C@H](O)[C@]12C [TCA, reference compound]
51

Sample C[C@H](CCC(=O)O)[C@H]1CC[C@H]2[C@@H]3[C@@H](O)C[C@@H]4C[C@H](O)CC[C@]4(C)[C@H]3CC[C@]12C [UDCA, ursodeoxycholic acid, reference compound] — what was its STCMC?
50.5

State the recorded STCMC for this entry: C[C@H](CCC(=O)NCCS(=O)(=O)O)[C@H]1CC[C@H]2[C@@H]3[C@H](O)C[C@@H]4C[C@H](O)CC[C@]4(C)[C@H]3CC[C@]12C [TCDCA, reference compound]
47.1
